Known MCC at 72 h of a selection of compounds
- assay.name: Cytotoxicity in KB cells by microscopic examination (MCC)
- condition.parameters: human
Counter-ions that a name gives are not always drawn.
experimental.readout: MCC at 72 h

[[record]]
compound = "CN(C)CCOCC(=O)NC12CC3CC(CC(C3)C1)C2"
meas_value = "> 50 µg/mL"

[[record]]
compound = "NC12CCCC3CC(CCC31)C2 (stereo not drawn) [Compound A, 3-Amino-4-homoisotwistane hydrochloride]"
meas_value = "50 µg/mL"

[[record]]
compound = "NC12CC3CC(CC(C3)C1)C2 [Amantadine HCl, amantadine hydrochloride, reference compound]"
meas_value = "> 50 µg/mL"

